The measured values listed here are drawn from patent US8216800B2.

test system: Salmonella Typhimurium NCTC 74; experiment: Peptidase activity detection on Columbia agar containing substrate; format: cell-based; design: key: − = no fluorescence detected; e = trace of fluorescence; +/− = weak fluorescence; + = medium fluorescence; ++ = strong fluorescence; NG = No Growth; conditions: substrate 100 mg/l, 24 hours at 37° C., UV 360-365 nm
Measured Attribute: fluorescence intensity

Below: 4 compounds and their reported fluorescence intensity.
[[record]]
compound = "NCC(=O)Nc1ccccc1-c1nc2ccccc2o1 [Substrate 3]"
val = "−"

[[record]]
compound = "NCCC(=O)Nc1ccccc1-c1nc2ccccc2o1 [Substrate 2]"
val = "−"

[[record]]
compound = "C[C@H](N)C(=O)Nc1ccc(Cl)cc1-c1nc2ccccc2s1 [Substrate 19]"
val = "+/−"

[[record]]
compound = "COc1cc(NC(=O)CCN)c(-c2nc3ccccc3o2)cc1OC [Substrate 11]"
val = "+"


### Prompt Report fluorescence intensity for C[C@H](N)C(=O)Nc1ccccc1-c1nc2cc(Cl)ccc2o1 [Substrate 4] please.
### Response NG

### Prompt Which fluorescence intensity value is on record for C[C@H](N)C(=O)Nc1ccccc1-c1nc2ccccc2o1 [Substrate 1] ?
### Response ++

### Prompt Reported fluorescence intensity, compound C[C@H](N)C(=O)Nc1ccccc1-c1nc2ccccc2n1CCc1ccccc1 [Substrate 14] : ____
### Response −

### Prompt Dear colleague, I am looking for the recorded fluorescence intensity of the following compound: NCCC(=O)Nc1ccccc1-c1nc2ccccc2s1 [Substrate 18]
### Response NG

### Prompt Requested field: fluorescence intensity. Item: C[C@H](N)C(=O)Nc1cc2c(cc1-c1nc3ccccc3n1CCc1ccccc1)OCO2 [Substrate 16]
### Response ++

### Prompt Data request, read-out fluorescence intensity, for C[C@H](N)C(=O)Nc1ccccc1-c1nc2ccccc2s1 [Substrate 17]
### Response NG
